Catalogue of Ratio* values
target_entity: BRM (Homo sapiens)
Construct: made in house; host or cells: High Five insect cells
Sequence (P51531 whole entry): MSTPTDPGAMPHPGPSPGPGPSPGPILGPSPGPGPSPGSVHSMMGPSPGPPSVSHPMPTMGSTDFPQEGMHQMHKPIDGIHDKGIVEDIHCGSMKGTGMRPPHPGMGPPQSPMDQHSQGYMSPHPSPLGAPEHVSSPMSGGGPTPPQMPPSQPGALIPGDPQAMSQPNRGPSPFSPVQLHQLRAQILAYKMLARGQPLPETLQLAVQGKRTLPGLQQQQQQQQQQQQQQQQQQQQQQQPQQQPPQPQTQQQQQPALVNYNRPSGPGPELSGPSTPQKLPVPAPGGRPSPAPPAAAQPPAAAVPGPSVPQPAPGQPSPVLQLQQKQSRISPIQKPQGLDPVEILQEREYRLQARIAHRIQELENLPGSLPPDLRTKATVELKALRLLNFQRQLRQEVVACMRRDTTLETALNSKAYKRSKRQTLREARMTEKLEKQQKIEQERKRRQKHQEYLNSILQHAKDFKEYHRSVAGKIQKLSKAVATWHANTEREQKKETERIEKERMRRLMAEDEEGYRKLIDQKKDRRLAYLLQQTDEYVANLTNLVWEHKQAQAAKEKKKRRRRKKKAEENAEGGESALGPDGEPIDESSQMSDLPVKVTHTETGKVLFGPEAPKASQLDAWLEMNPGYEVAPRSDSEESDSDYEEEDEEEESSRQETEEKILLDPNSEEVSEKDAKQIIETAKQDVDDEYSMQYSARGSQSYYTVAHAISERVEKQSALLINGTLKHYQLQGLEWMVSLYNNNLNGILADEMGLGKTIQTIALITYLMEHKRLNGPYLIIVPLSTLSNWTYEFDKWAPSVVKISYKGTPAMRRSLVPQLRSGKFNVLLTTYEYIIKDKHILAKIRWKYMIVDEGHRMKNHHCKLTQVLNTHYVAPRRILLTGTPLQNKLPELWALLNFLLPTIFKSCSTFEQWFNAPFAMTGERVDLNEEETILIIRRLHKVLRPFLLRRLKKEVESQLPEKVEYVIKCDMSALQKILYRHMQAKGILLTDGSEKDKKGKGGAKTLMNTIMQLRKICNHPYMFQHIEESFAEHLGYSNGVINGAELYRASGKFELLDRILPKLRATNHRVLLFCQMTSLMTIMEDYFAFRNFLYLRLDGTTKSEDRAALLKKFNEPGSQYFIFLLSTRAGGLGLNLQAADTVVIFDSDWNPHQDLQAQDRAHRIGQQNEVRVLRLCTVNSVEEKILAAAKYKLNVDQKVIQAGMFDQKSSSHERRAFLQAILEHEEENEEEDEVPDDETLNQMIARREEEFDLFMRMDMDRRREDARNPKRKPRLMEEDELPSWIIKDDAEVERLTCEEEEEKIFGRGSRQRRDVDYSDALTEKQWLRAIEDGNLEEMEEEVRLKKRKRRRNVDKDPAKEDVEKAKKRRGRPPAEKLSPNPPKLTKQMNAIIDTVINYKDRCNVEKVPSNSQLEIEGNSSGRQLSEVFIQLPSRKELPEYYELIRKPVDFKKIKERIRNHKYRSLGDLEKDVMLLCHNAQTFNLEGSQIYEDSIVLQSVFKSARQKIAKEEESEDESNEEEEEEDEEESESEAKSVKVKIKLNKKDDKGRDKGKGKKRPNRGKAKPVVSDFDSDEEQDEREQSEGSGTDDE
method: ATPase catalytic activity of BRM, ADP-Glo in vitro biochemical assay
condition_parameters: ratio of BRG1 IC50 to BRM IC50
Just the number.

The cases that follow already have their Ratio* on record.
- CN1CCN(c2ccc3cnc(CNC(=O)c4ccc5c(c4)S(=O)(=O)CCOC5)cc3n2)c2ccccc21 [Compound 512]: 7.58
- CC(C)S(=O)(=O)c1cccc(C(=O)NCc2cc3nc(-c4cccc(N5C[C@@H](C)O[C@@H](C)C5)n4)ccc3cn2)c1 [Compound 365]: 24.88
- C[C@@H]1CN(c2cccc(-c3ccc4cnc(CNC(=O)c5cc(C6(C)CC6)c6c(c5)S(=O)(=O)CCOC6)cc4n3)n2)C[C@H](C)O1 [Compound 351]: 1.00

Tell me reported Ratio* for C[C@@H]1CN(c2cccc(-c3ccc4nnc(CNC(=O)c5ccc(Cl)c(S(C)(=O)=O)c5)cc4n3)n2)C[C@H](C)O1 [Compound 406] , tested with BRM (Homo sapiens).
13.86

// map COC1(CN(C)c2cccc(-c3ccc4cnc(CNC(=O)c5ccc6c(c5)S(=O)(=O)CCOC6)cc4n3)n2)CC1 [Compound 323] to recorded Ratio* (system: BRM (Homo sapiens))
13.46

Could you share what Ratio* was measured for C[C@@H]1CN(c2cccc(-c3ccc4cnc(CNC(=O)c5ccc6c(c5)S(=O)(=O)[C@@H](C)C6)cc4n3)n2)C[C@H](C)O1 [Compound 500] , tested on BRM (Homo sapiens)?
16.91

Find the measured Ratio*: item COc1nc(C(C)(F)F)ccc1-c1ccc2cnc(CNC(=O)c3ccc4c(c3)S(=O)(=O)[C@@H](C)COC4)cc2n1 [Compound 542] , target or system BRM (Homo sapiens).
13.60

Enter reported Ratio* observed with BRM (Homo sapiens) for C[C@@H]1CN(c2cccc(-c3ccc4cnc(CNC(=O)c5cc(Cl)c6c(c5)S(=O)(=O)[C@@H](C)CCO6)cc4n3)n2)C[C@H](C)O1 [Compound 484]
21.16

Give Ratio* (BRM (Homo sapiens)) of the following compound: Cc1cc2c(-c3ccc4cnc(CNC(=O)c5ccc6c(c5)S(=O)(=O)CCOC6)cc4n3)cncc2n1C [Compound 657]
5.73

Please tell me: Ratio* of O=C(NCc1cc2nc(-c3cccc(N4CC[C@H]5C[C@H]5C4)n3)ccc2cn1)c1ccc2c(c1)S(=O)(=O)CCOC2 [Compound 322] , system BRM (Homo sapiens)?
10.96

# returns recorded Ratio* (system: BRM (Homo sapiens)) for C[C@H]1Cc2ccc(-c3ccc4cnc(CNC(=O)c5ccc6c(c5)S(=O)(=O)CCOC6)cc4n3)nc2N(C)C1 [Compound 662]
4.71

GET /values?readout=Ratio*&system=BRM (Homo sapiens)&item= O=C(NCc1cc2nc(N3CCCCc4cccnc43)ccc2cn1)c1ccc2c(c1)S(=O)(=O)CCOC2 [Compound 469]
1.82

Notebook: pull reported Ratio* for BRM (Homo sapiens), entry COCCn1cc2c(-c3ccc4cnc(CNC(=O)c5ccc6c(c5)S(=O)(=O)CCOC6)cc4n3)cccc2n1 [Compound 673]
8.79

Return Ratio* measured with BRM (Homo sapiens) given this compound: COC1CCN(c2ccc3cnc(CNC(=O)c4ccc5c(c4)S(=O)(=O)CCOC5)cc3n2)c2ncccc21 (centres unmarked) [Compound 496]
15.21
